Assay: in vivo
Details: male, C57BL/6, mouse, in vivo, iv, 1 mg/kg
Give clearance for every item shown.
Answers are plain numbers, in mL/min/kg.

Hey, quick one: what's clearance for each of these?
1. Cc1nc(CN2CCC(c3cccc4c3O[C@@](C)(c3ccc(Cl)cc3F)O4)CC2)n(C[C@@H]2CCO2)c1C(=O)O
2. C[C@]1(c2ccc(Cl)cc2F)Oc2cccc(C3CCN(Cc4nc(C(F)(F)F)c(/C=C/C(=O)O)n4C[C@@H]4CCO4)CC3)c2O1
3. C[C@]1(c2ccc(Cl)cc2F)Oc2cccc(C3CCN(Cc4nc5ccc(C(=O)O)cc5n4C[C@@H]4CCO4)CC3)c2O1 [compound 1, reference compound]

1. 12.3
2. 7
3. 24.1

---

Experiment: Pharmacokinetics in C57BL/6 mice (i.v. and oral)
Conditions: male, C57BL/6, mouse, whole blood, po, 3 mg/kg
Endpoint: Cmax (nM)
One number for each entry, in nM.

Smiles	Cmax (nM)
C[C@]1(c2ccc(Cl)cc2F)Oc2cccc(C3CCN(Cc4ncc(/C=C/C(=O)O)n4C[C@@H]4CCO4)CC3)c2O1	240

Which Cmax value is on record for Cc1nc(CN2CCC(c3cccc4c3O[C@@](C)(c3ccc(Cl)cc3F)O4)CC2)n(C[C@@H]2CCO2)c1/C=C/C(=O)O ?
1060

---

Target: human GLP1R (Homo sapiens, UniProt P43220)
Sequence (P43220 24-463): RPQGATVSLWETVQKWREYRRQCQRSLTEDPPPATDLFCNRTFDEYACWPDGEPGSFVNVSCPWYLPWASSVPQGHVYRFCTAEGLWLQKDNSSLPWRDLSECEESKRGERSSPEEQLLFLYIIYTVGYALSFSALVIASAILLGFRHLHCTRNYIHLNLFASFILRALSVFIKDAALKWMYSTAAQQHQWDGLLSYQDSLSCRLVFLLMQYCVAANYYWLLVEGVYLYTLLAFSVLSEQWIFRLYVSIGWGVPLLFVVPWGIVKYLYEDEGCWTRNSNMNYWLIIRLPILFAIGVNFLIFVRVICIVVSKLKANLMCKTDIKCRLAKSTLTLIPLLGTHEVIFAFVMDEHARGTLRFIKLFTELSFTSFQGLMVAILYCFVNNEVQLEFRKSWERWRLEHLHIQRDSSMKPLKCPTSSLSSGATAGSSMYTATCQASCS
Test: Human GLP1R DERET internalization assay
Settings: HEK293-SNAP-hGLP1R-GloSensor cells; mean n=2
Endpoint: pEC50
Numbers only, as −log10 of the molar value.

Please review the following examples before continuing.
Compound	Subject of test	pEC50
Cc1nc(CN2CCC(c3cccc4c3O[C@@](C)(c3ccc(Cl)cc3F)O4)CC2)n(C[C@@H]2CCO2)c1/C=C(/F)C(=O)O [Compound C-19a]	human GLP1R (Homo sapiens, UniProt P43220)	7.07
Cc1nc(CN2CCC(c3cccc4c3O[C@@](C)(c3ccc(Cl)cc3F)O4)CC2)n(C[C@@H]2CCO2)c1CCC(=O)O [Compound C-14]	human GLP1R (Homo sapiens, UniProt P43220)	5.47
C[C@]1(c2ccc(Cl)cc2F)Oc2cccc(C3CCN(Cc4nc(F)c(/C=C/C(=O)O)n4C[C@@H]4CCO4)CC3)c2O1 [Compound C-18]	human GLP1R (Homo sapiens, UniProt P43220)	6.71

Entry Cc1nc(CN2CCC(c3cccc4c3O[C@@](C)(c3ccc(Cl)cc3F)O4)CC2)n(C[C@@H]2CCO2)c1/C=C/C(=O)O [Compound C-5] has what pEC50?
7.05

---

Target: UniProt:P43220
Test: Human GLP1R cAMP agonist assay (GloSensor)
Assay type: cell-based
Conditions: HEK293-SNAP-hGLP1R-GloSensor cells; intracellular cAMP; mean n=3 where SEM is given
Would you kindly list log10 EC50 for each of these compounds?
Base-10 log of EC50, unit nM.

Record excerpt, results attached:
Compound	Subject of test	log10 EC50
Cc1c(C(=O)O)nc(CN2CCC(c3cccc4c3O[C@@](C)(c3ccc(Cl)cc3F)O4)CC2)n1C[C@@H]1CCO1	UniProt:P43220	0.92
C[C@]1(c2ccc(Cl)cc2F)Oc2cccc(C3CCN(Cc4ncc(/C=C/C(=O)O)n4C[C@@H]4CCO4)CC3)c2O1	UniProt:P43220	-1.71

Give one value of log10 EC50 per listed compound.
1. Cc1nc(CN2CCC(c3cccc4c3O[C@@](C)(c3ccc(Cl)cc3F)O4)CC2)n(C[C@@H]2CCO2)c1C(O)CC(=O)O (mixture of isomers)
2. Cc1c(-c2cncc(C(=O)O)c2)nc(CN2CCC(c3cccc4c3O[C@@](C)(c3ccc(Cl)cc3F)O4)CC2)n1C[C@@H]1CCO1
3. C[C@]1(c2ccc(Cl)cc2F)Oc2cccc(C3CCN(Cc4nc(-c5ccc(F)cc5)c(C#CC(=O)O)n4C[C@@H]4CCO4)CC3)c2O1
4. C[C@]1(c2ccc(Cl)cc2F)Oc2cccc(C3CCN(Cc4nc(/C=C/C(=O)O)cn4C[C@@H]4CCO4)CC3)c2O1

[0.03, -0.22, -1.33, 0.35]
